Values compiled from patent US11066414B2.

test system: TNFα; test: Cot Monocyte TNFα Cell Based Assay; conditions: Homo sapiens, Monocyte, read-out: EC50 TNF, LPS-stimulated human monocytes, TNFα
reported.property: log10 of EC50 (log10 of the value in nM)
Note: values are log10 of EC50 expressed in nM.

Solved cases (8 shown):
CC(C)(C)CNc1c(C#N)cnc2c(Cl)cc(N[C@H](c3cn(C4(C#N)CC4)nn3)c3cccc4ncccc34)cc12; 1.82
CC(C)(C)CNc1c(C#N)cnc2c(Cl)cc(N[C@H](c3cn(C4(C(F)(F)F)CC4)nn3)c3cnn4ncccc34)cc12; 3.00
Cc1ccc([C@H](Nc2cc(C#N)c3ncc(C#N)c(NCC(C)(C)C)c3c2)c2cn(C3(C(F)(F)F)CC3)nn2)c(F)n1; 2.40
Cc1nc(F)ccc1[C@H](Nc1cc(Cl)c2ncc(C#N)c(NCC(C)(C)C)c2c1)c1cn([C@@H](C)CF)nn1; 1.62
Cn1cc2c([C@H](Nc3cc(Cl)c4ncc(C#N)c(NCC(C)(C)C)c4c3)c3cn(C4CC4)nn3)cccc2n1; 1.98
Cc1ncccc1[C@H](Nc1cc(Cl)c2ncc(C#N)c(Nc3ccc(F)c(Cl)c3)c2c1)c1cn(COC(=O)C(C)(C)C)nn1; 2.57
CC(C)(C)CNc1c(C#N)cnc2c(C#N)cc(N[C@@H](c3ccc4cccnc4c3)c3cn(C4(C(F)F)CC4)nn3)cc12; 2.25
CC(C)(C)CNc1c(C#N)cnc2c(Cl)cc(N[C@H](c3cn(C45CC(C4)C5)nn3)c3cccc4c(=O)[nH]ccc34)cc12; 1.81

Request: Value lookup for log10 of EC50; key = `Cc1nc(F)ccc1[C@H](Nc1cc(C#N)c2ncc(C#N)c(NCC(C)(C)C)c2c1)c1cn([C@@H](C)CF)nn1`
Result: 1.43

Request: Query: log10 of EC50; subject: `N#Cc1cnc2c(Cl)cc(N[C@@H](c3cccnc3)c3cn(CCOCCO)nn3)cc2c1Nc1ccc(F)c(Cl)c1`
Result: 2.93

Request: log10 of EC50 for [2H]C(Nc1cc(Cl)c2ncc(C#N)c(N[C@H](CCC#N)c3ccccc3)c2c1)(c1cn(C2(C(F)(F)F)CC2)nn1)c1ccc(F)nc1C (stereo partly drawn) ?
Result: 1.64

Request: Consider the compound `CC(C)n1cc([C@@H](Nc2cc(Cl)c3ncc(C#N)c(N[C@H](CCO)c4ccccc4)c3c2)c2cccnc2)nn1` and give its measured log10 of EC50.
Result: 3.99
